Reference source for all entries: PubChem BioAssay (NCI)

Assay: NCI Yeast Anticancer Drug Screen. Data for the bub3 strain (AID 167)
Details: S. cerevisiae bub3 mutant strain, at 50.0 µM
This is part of a sample that, as a whole, favours compounds with a hit. Of some 79,000 tested, about 15% had one in any assay. Activity calls are given as the source filed them. Cut-off read from the data, not from the text of the source: active = growth inhibition above about 70%; inactive = the rest.
Hi! Could you answer with just one of these? YES = active, NO = inactive

Asked: Status in this test for COc1ccc2ccccc2c1C=O ?
Given back: NO

Asked: # lookup: test call for CC1=NN(C)C(=O)C1
Given back: NO

Asked: Recorded test outcome, item COc1ccc(Nc2cc[nH]c(=O)c2NC(C)=O)cc1
Given back: NO

Asked: What did this assay record as the result for CSC1(C)C(=O)Nc2ccccc21 (stereo not given) ?
Given back: NO

Asked: What outcome does the record of this test show for CN1N=C(c2ccccc2)C(C(c2ccccc2[N+](=O)[O-])C2C(=O)N(C)N=C2c2ccccc2)C1=O (stereo not given) ?
Given back: NO

Asked: Look up the recorded call for O=C(Nc1nc2c(ncn2C2OC(CO)C(O)C2O)c(=O)[nH]1)c1ccccc1 (stereo not given) in this test.
Given back: NO

Asked: # lookup: test call for CCCSc1ccc([N+](=O)[O-])cc1[N+](=O)[O-]
Given back: NO

Asked: Test call, this molecule: C/C(=C\c1ccccc1)c1ccccc1
Given back: NO

Asked: // outcome(item) with item = O=C(Nc1nc(=S)[nH][nH]1)C(=O)C(C(=O)c1ccc2ccccc2c1)C1OC(=O)c2ccccc21 (stereo not given)
Given back: NO

Asked: Status in this test for C=C1C(=O)C=C2C=C3C(=O)C(C)(C)C[C@]3(O)C12C (stereo not given in full) ?
Given back: YES

Asked: Dear colleague, could you share the recorded outcome for O=C(O)c1ccccc1Oc1ccc([N+](=O)[O-])cc1[N+](=O)[O-] when you have a moment?
Given back: NO

Asked: Per the assay record, what outcome was assigned to CC1CC(C)NC(C)C1 (stereo not given) ?
Given back: NO

Asked: Kindly provide the recorded test outcome for the following molecule: O=C1/C(=C/c2ccc(F)cc2)CC/C1=C\c1ccc(F)cc1
Given back: NO

Asked: Name the outcome recorded for CCN(CC)C(=O)CCC1(C)OCCO1 in the assay.
Given back: NO

Asked: Any idea what this test logged for CC/C(=N\N=C(/CC)c1ccc[nH]1)c1ccc[nH]1 ?
Given back: NO

Asked: Called result for CC1(C)[C@H](C(=O)O)N2C(=O)[C@@H](NC(=O)C(c3ccccc3)c3ccccc3)[C@H]2S1=O (stereo not given in full)
Given back: NO

Asked: Please share the test call associated with NNC(=O)C1CCC(=O)N1S(=O)(=O)c1ccccc1 (stereo not given) .
Given back: NO

Asked: Recorded test outcome, item O=C1C=CC(=O)C1N=Nc1ccccc1
Given back: NO

Asked: Short answer needed: outcome of this test for COC(=O)Oc1ccc(Cl)cc1Cl ?
Given back: NO

Asked: Each molecule tested received a call. Report the one for CCc1nn2c(=O)nc(Oc3ccccc3)nc2s1 .
Given back: NO

Asked: Field: outcome | Entry: CC(C1CCCC1=O)C1CCCC1=O (stereo not given)
Given back: NO

Asked: Please share the test call associated with Cc1cc(C)cc(Cc2ccc3ccccc3c2)c1 .
Given back: NO

Asked: Dear colleague, could you share the recorded outcome for O=C(OCC1OC(OC(=O)N(c2ccccc2)c2ccccc2)C(OS(=O)(=O)c2ccc([N+](=O)[O-])cc2)C1OC(=O)c1ccccc1)c1ccccc1 (stereo not given) when you have a moment?
Given back: NO

Asked: Assay outcome for O=[N+]([O-])c1cc(Br)ccc1N1CCCCC1 : what was it?
Given back: NO

Asked: Which outcome was assigned to CCCCCCCCCCCC[N+](C)(C)Cc1cc(=O)c(O)co1 in this test?
Given back: NO

====

Assay: NCI Yeast Anticancer Drug Screen. Data for the bub3 strain (AID 167)
Details: S. cerevisiae bub3 mutant strain, at 50.0 µM, hits give high values
Protocol: Growth inhibition of yeast strains with defined genetic alterations is measured as a screen for potential anti-cancer activity. Selected strains with alterations in DNA damage repair or cell cycle control were exposed to compounds and growth inhibition was measured relative to vehicle treated controls. The strain used in this assay is bub3
About 79,000 compounds went through this panel and 15% of them were active in at least one assay; those are over-represented in the sample as a whole.
Readout: growth inhibition (%)
// units = %; emit number, no label

Asked: Which growth inhibition is listed for NNC(=S)N/N=C/C(Cl)=C(\Cl)C(=O)O ?
Given back: 0.1

Asked: Requested field: growth inhibition. Item: Oc1ccccc1-c1n[nH]c(=S)n1/N=C/c1ccc(-c2ccc(Br)cc2)o1
Given back: -20.1

Asked: What does the record list as growth inhibition for CC(=O)CC(=O)NN(C)C ?
Given back: -36.4

Asked: May I ask what growth inhibition has been recorded for O=C1c2cccc3cc([N+](=O)[O-])cc(c23)C(=O)N1CCNCCNCCNCCN1C(=O)c2cccc3cc([N+](=O)[O-])cc(c23)C1=O ?
Given back: 89.2

Asked: For the molecule Cc1cccc(C(=O)OCCCl)c1 , what growth inhibition is on record?
Given back: 5

Asked: Looking for the measured growth inhibition of O=C(Nc1ccc(Cl)cc1)Nc1nnc2nc(CC(=O)c3ccc4ccccc4c3)c(=O)[nH]n12 , can you help?
Given back: 21.8

====

Experiment: NCI Yeast Anticancer Drug Screen. Data for the rad50 strain (AID 155);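 note: 0% = growth of vehicle-only cultures of the same strain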
Details: S. cerevisiae rad50 strain growth inhibition; at 50.0 µM; hits give high values
This is part of a sample that, as a whole, favours compounds with a hit. Of some 79,000 tested, about 15% had one in any assay.
Readout: growth inhibition (%)
Write the number in % without appending the unit.

Asked: Can you look up the measured growth inhibition of COc1ccc(Cl)cc1NC(=O)Oc1ccccc1C(N)=O for me?
Given back: -1.05

Asked: # growth inhibition lookup, item CC(COc1ccc(Cl)cc1)OS(=O)(=O)CCCl (stereo not drawn)
Given back: 14.3

Asked: Fill in: growth inhibition of Cc1cc2nc(CCC(=O)O)c(=O)[nH]c2cc1C is ___
Given back: -22.4

Asked: # get_value(readout='growth inhibition', item= CC(=O)CCC(=O)c1ccoc1 )
Given back: 9.05

Asked: Form field: reported growth inhibition of Cc1cc(C)cc(Cc2ccc3ccccc3c2)c1
Given back: 2.9

Asked: Given the compound CN(C)CC(c1ccccc1)C(O)(c1ccccc1)c1ccccc1 (stereo not drawn) , what is its reported growth inhibition?
Given back: -5.65

Asked: Which growth inhibition reading was recorded for the compound O=c1[nH]c2cc([N+](=O)[O-])ccc2nc1/C=C(\O)c1cccc([N+](=O)[O-])c1 ?
Given back: 12.3

Asked: I would be grateful if you could share the reported growth inhibition for NC(N)=NC(N)=Nc1ccccc1 .
Given back: -15.9

Asked: Given N#Cc1c2nc3ccccc3nc2n2ccccc12 , state its recorded growth inhibition.
Given back: 0.7

Asked: Which value of growth inhibition has been reported for CN(C)c1ccc(-c2cc(C(=O)O)c3cc(I)ccc3n2)c(Cl)c1 in the records?
Given back: 45.9

Asked: Recorded growth inhibition of CSC(=Nc1ccc(Br)cc1)NC(=O)c1cc([N+](=O)[O-])cc([N+](=O)[O-])c1 , please.
Given back: -33

Asked: What measured growth inhibition goes with COc1cc(C(c2cc3c(cc2O)OCO3)N2CCCC2)cc(OC)c1OC (stereo not drawn) ?
Given back: -13.2

Asked: Consider the compound COc1cc2c(cc1O)C(Cc1ccccc1)N(C)CC2O (stereo not drawn) and give its measured growth inhibition.
Given back: -12.6

Asked: growth inhibition lookup needed for CC(=O)Nc1c(C)ccc([N+](=O)[O-])c1C , thanks.
Given back: -3.2

Asked: I would be grateful if you could share the reported growth inhibition for COc1ccc(-n2c(C)nc3c(cnn3CN3CCCCC3)c2=O)cc1 .
Given back: 4

Asked: Quick one: growth inhibition for CCCN(CCC)S(=O)(=O)c1ccc(NC(=O)OC(c2ccccc2)(c2ccccc2)c2ccccc2)cc1 ?
Given back: 24.1

Asked: Fill in the blank: the reported growth inhibition of C(=C\c1cc(-c2cc(/C=C/c3ccccc3)[nH]n2)n[nH]1)/c1ccccc1 is ____.
Given back: 6.15

Asked: Query: growth inhibition; subject: N#Cc1ccccc1NC(=O)C(=O)C(C(=O)c1ccccc1F)C1OC(=O)c2ccccc21 (stereo not drawn)
Given back: -1.1

Asked: So what does the record say about growth inhibition for COc1ccc(C(=O)/C=C/c2ccccc2)c(O)c1OC ?
Given back: -7.45

Asked: Which measured growth inhibition value corresponds to COc1cc(SC)c(OC)cc1C ?
Given back: 4.15

Asked: Look at this compound and give its reported growth inhibition. O=c1[nH][nH]c(=O)c2c1nc(SCc1ccc(Br)cc1)n2Cc1ccccc1
Given back: 16.9

Asked: Any idea what growth inhibition was measured for COc1cc(C(=O)C/C(CCCC(=O)Nc2ccccc2[N+](=O)[O-])=N/NC(=O)c2cc3ccccc3cc2O)ccc1O ?
Given back: 12.9

Asked: Item under review: CN(C)CC1CC(O)C(CN(C)C)CC1O (stereo not drawn) . Reported growth inhibition?
Given back: -6.2
